Biological target: β-amyloid (Aβ1-42) fibrils (Homo sapiens, UniProt P05067)
Construct: β-Amyloid peptide (Aβ1-42, 1 mg, Bachem)
Sequence (P05067 672-713 limits assumed): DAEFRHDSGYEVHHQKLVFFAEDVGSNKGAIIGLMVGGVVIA
Test: Dissociation constant (Kd) of [125I]TZDM on β-amyloid fibrils
Settings: Aβ1-42 fibrils 10 nM, 10% ethanol, room temperature 3 hours, nonspecific binding with 2 μM ThT
pKd: −log10 of the molar value.
result.type: pKd

| compound | meas.value |
| --- | --- |
| CN(C)c1ccc(-c2nc3ccc([125I])cc3s2)cc1 [[^125I]TZDM] | 9.89 |

====

Readings of pKi for the listed compounds
Target: β-amyloid (Aβ1-42) fibrils (Homo sapiens)
Construct: β-Amyloid peptide (Aβ1-42, 1 mg, Bachem)
Experiment: Inhibitory binding assay against [125I]TZDM on β-amyloid (Aβ1-42) fibrils
Conditions: Aβ1-42 fibrils 10 nM, [125I]TZDM 0.05 nM, 10% ethanol, room temperature 3 hours, nonspecific binding with 2 μM ThT; read-out: Ki, relative binding affinity to [125I]TZDM (112)
pKi: −log10 of the molar value.

| compound | pKi |
| --- | --- |
| COc1ccc2cc(-c3cccc([N+](=O)[O-])c3)sc2c1 [Example 2] | 9.19 |
| CN(C)c1ccc(-c2cc3ccc(OCCCF)cc3s2)nn1 [Example 53] | 9.19 |
| COc1nccc(-c2cc3ccc(OCCCF)cc3s2)n1 [Example 37] | 9.36 |
| CN(C)c1ccnc(-c2cc3ccc(OCCF)cc3s2)n1 [Example 42] | 9.60 |
| CNc1ccnc(-c2cc3ccc(OCCCF)cc3s2)n1 [Example 43] | 9.43 |
| CNc1ccc(-c2cc3ccc(OCCF)cc3s2)cc1 [Example 12] | 10.19 |
| COc1ccc2cc(-c3ccnc(OCCCF)c3)sc2c1 [Example 28] | 10.00 |
| COc1cccc2sc(-c3ccc([N+](=O)[O-])cc3)cc12 [Example 1] | 9.14 |
| COc1ccc(-c2cc3ccc(OCCF)cc3s2)cn1 [Example 20] | 8.88 |
| COc1ccc2cc(-c3cncc(OCCCF)n3)sc2c1 [Example 55] | 9.35 |
| CN(C)c1ccc(-c2cc3ccc(OCCF)cc3s2)nn1 [Example 49] | 9.37 |
| O=[N+]([O-])c1ccc(-c2cc3ccc(O)cc3s2)cc1 [Example 4] | 8.97 |
| CN(C)c1ccc(-c2cc3ccc(OCCCF)cc3s2)cn1 [Example 26] | 10.05 |
| CNc1nccc(-c2cc3ccc(OCCF)cc3s2)n1 [Example 35] | 9.26 |
| Nc1ccc(-c2cc3ccc(OCCF)cc3s2)cn1 [Example 21] | 8.95 |
| COc1nccc(-c2cc3ccc(OCCF)cc3s2)n1 [Example 34] | 9.33 |
| COc1ccc2cc(-c3ccc(OCCCF)nc3)sc2c1 [Example 19] | 9.41 |
| Nc1ccc(-c2cc3ccc(OCCF)cc3s2)nn1 [Example 47] | 9.36 |
| CN(C)c1ccc(-c2cc3ccc(OCCCF)cc3s2)cc1 [Example 17] | 8.13 |
| COc1ccc2cc(-c3ccc(N(C)C)cc3)sc2c1 [Example 15] | 8.80 |
| COc1ccc(-c2cc3ccc(OCCCF)cc3s2)nn1 [Example 50] | 9.74 |
| COc1ccc2cc(-c3ccc(N)cc3)sc2c1 [Example 8] | 9.29 |
| CNc1ccc(-c2cc3ccc(OCCCF)cc3s2)cn1 [Example 25] | 10.22 |
| Nc1ccc(-c2cc3ccc(OCCCF)cc3s2)cc1 [Example 10] | 9.19 |
| CNc1ccc(-c2cc3ccc(OCCF)cc3s2)cn1 [Example 22] | 9.34 |
| CNc1ccc(-c2cc3ccc(OCCCF)cc3s2)cc1 [Example 13] | 9.57 |
| Nc1ccc(-c2cc3ccc(OCCCF)cc3s2)nn1 [Example 51] | 9.42 |
| Nc1ccc(-c2cc3ccc(OCCCF)cc3s2)cn1 [Example 24] | 8.93 |
| CN(C)c1ccc(-c2cc3ccc(OCCF)cc3s2)cc1 [Example 16] | 10.10 |
| CNc1ccc(-c2cc3ccc(OCCCF)cc3s2)nn1 [Example 52] | 9.26 |
| COc1ccc2cc(-c3ccc(OCCF)nn3)sc2c1 [Example 44] | 10.19 |
| COc1ccc2cc(-c3ccc([N+](=O)[O-])cc3)sc2c1 [Example 3] | 8.64 |
| COc1ccc2cc(-c3ccnc(OCCCF)n3)sc2c1 [Example 32] | 9.34 |
| COc1cccc2sc(-c3ccc(N(C)C)cc3)cc12 [Example 14] | 9.11 |
| CNc1ccnc(-c2cc3ccc(OCCF)cc3s2)n1 [Example 41] | 9.28 |

====

Readings of log10(Ki) for the listed compounds
Molecular target: β-amyloid (Aβ1-42) fibrils (Homo sapiens, UniProt P05067)
Construct: β-Amyloid peptide (Aβ1-42, 1 mg, Bachem)
Assay: Inhibitory binding assay against [125I]TZDM on β-amyloid (Aβ1-42) fibrils
Details: Aβ1-42 fibrils 10 nM, [125I]TZDM 0.05 nM, 10% ethanol, room temperature 3 hours, nonspecific binding with 2 μM ThT; read-out: Ki, relative binding affinity to [125I]TZDM (112)
result.type: log10(Ki) (log10 of the value in nM)

| smiles.repr | meas.value |
| --- | --- |
| COc1ccc2cc(-c3ccnc(NCCF)n3)sc2c1 | -0.28 |
| COc1ccc2cc(-c3ccc(OCCF)nc3)sc2c1 | -1.05 |
| CNc1ccc(-c2cc3ccc(OCCF)cc3s2)nn1 | -0.52 |
| COc1ccc2cc(-c3ccnc(OCCF)n3)sc2c1 | -0.21 |
| CNc1ccc(-c2cc3ccc(OC)cc3s2)cc1 | -0.37 |
| COc1cc(-c2cc3ccc(OCCCF)cc3s2)ccn1 | -0.10 |
| CN(C)c1ccc(-c2cc3ccc(OCCF)cc3s2)cn1 | -0.14 |
| Nc1ccc(-c2cc3ccc(OCCF)cc3s2)cc1 | -0.42 |
| COc1ccc2cc(-c3ccnc(OCCF)c3)sc2c1 | -0.08 |
| COc1ccc2cc(-c3ccc(OCCCF)nn3)sc2c1 | 0.00 |

====

result.type: melting point

| smiles.repr | result.type | meas.value |
| --- | --- | --- |
| CNc1ccc(-c2cc3ccc(OCCF)cc3s2)cc1 | melting point | 156.9 to 159.7 °C |
| CN(C)c1ccc(-c2cc3ccc(OCCF)cc3s2)cc1 | melting point | 183.9 to 195.9 °C |
| Nc1ccc(-c2cc3ccc(OCCCF)cc3s2)cc1 | melting point | 119.6 to 123.2 °C |
| CN(C)c1ccc(-c2cc3ccc(OCCCF)cc3s2)cc1 | melting point | 177.7 to 183 °C |
| O=[N+]([O-])c1ccc(-c2cc3ccc(O)cc3s2)cc1 | melting point | 265 to 265.2 °C |
| CNc1ccc(-c2cc3ccc(OCCCF)cc3s2)cc1 | melting point | 121.4 to 123.1 °C |
